Tested on: Saccharomyces cerevisiae BY4741 SeMeCo community
Assay: z-score of subpopulation abundance vs DMSO median, subpopulation auxotrophic for HL; higher = larger share of this subpopulation than in DMSO controls
Details: 10 µM; 24 h; SM minimal medium; subpopulation (auxotrophy): HL
Structures can show the parent of a compound that is named as a salt.
# if value of z-score of subpopulation abundance reaches -0.1, tag class 1; if it stays below, tag class 0

Please review the following examples before continuing.
molecule	measured_on	classification
OCCOc1ccc(/C(=C(/CCCl)c2ccccc2)c2ccccc2)cc1 [Ospemifene]	Saccharomyces cerevisiae BY4741 SeMeCo community	class 1
Cc1cc(/C=C/c2ccc3cc(N(C)C)ccc3[n+]2C)c(C)n1-c1ccccc1 [pyrvinium]	Saccharomyces cerevisiae BY4741 SeMeCo community	class 0
COc1cc2c(cc1OC)C(=O)C(CC1CCN(Cc3ccccc3)CC1)C2 (configuration not stated) [Donepezil HCl]	Saccharomyces cerevisiae BY4741 SeMeCo community	class 0
CCCCCCCCCCCC(=O)O [Lauric Acid]	Saccharomyces cerevisiae BY4741 SeMeCo community	class 0
CCN1CCN(C(=O)N[C@@H](C(=O)N[C@@H]2C(=O)N3C(C(=O)O)=C(CSc4nnnn4C)CS[C@H]23)c2ccc(O)cc2)C(=O)C1=O [Cefoperazone]	Saccharomyces cerevisiae BY4741 SeMeCo community	class 1
CN(C)CCCN1c2ccccc2Sc2ccc(Cl)cc21 [Chlorpromazine HCl]	Saccharomyces cerevisiae BY4741 SeMeCo community	class 0
CCCCCc1ccc(C)cc1O [Amylmetacresol]	Saccharomyces cerevisiae BY4741 SeMeCo community	class 1
Clc1ccc(C(Cn2ccnc2)OCc2ccc(Sc3ccccc3)cc2)c(Cl)c1 (configuration not stated) [Fenticonazole Nitrate]	Saccharomyces cerevisiae BY4741 SeMeCo community	class 1
CCCCCOc1ccccc1/C(=C\SC)n1ccnc1 [Neticonazole Hydrochloride]	Saccharomyces cerevisiae BY4741 SeMeCo community	class 1
N[C@@H](C(=O)N[C@@H]1C(=O)N2C(C(=O)O)=C(Cl)CS[C@H]12)c1ccccc1 [Cefaclor]	Saccharomyces cerevisiae BY4741 SeMeCo community	class 1

Task item: Is it the case that CN(C/C=C/C#CC(C)(C)C)Cc1cccc2ccccc12 [Terbinafine HCl] has z-score of subpopulation abundance reaching or exceeding -0.1?
Reply: class 0

Task item: Is it the case that O=C(O)c1cc(=O)c2c(OCC(O)COc3cccc4oc(C(=O)O)cc(=O)c34)cccc2o1 [Disodium Cromoglycate] has z-score of subpopulation abundance reaching or exceeding -0.1?
Reply: class 0

Task item: Is it the case that CCCCN(CCCC)CC(O)c1cc(Cl)cc2c1-c1ccc(Cl)cc1/C2=C/c1ccc(Cl)cc1 (configuration not stated) [Lumefantrine] has z-score of subpopulation abundance reaching or exceeding -0.1?
Reply: class 0

All figures here come from the supplement of paper PMC8975748.
